System: K4 kissing-loop RNA reporter;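 further: bound reporter read as fluorescence of individual clusters on recovered sequencing chips by microscopy, with normalized cluster intensities fitted with a binding model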
Test: apparent KD of K4 kissing-loop reporter; higher = weaker reporter binding
Conditions: Eterna round: R107; input ligand: FMN 200 uM
recorded endpoint: apparent KD of K4 kissing-loop reporter

| macromolecule sequence | result |
| --- | --- |
| GCUAUGGUAGGAAGGAGCGCUUACUCGGUCAUAAGAGUGAUGUUCGAGACCGAGUAUUUAUAGCAGGUAGGUCGCCUACUAUAGC [Arginine B K4 6] | 68 nM |
| AAAAUAAUCCAGUGAUGUUGGUAACCAGAUACCAGCGACGAAAGUCGCCCUUGGCAGCUGUGGACGUACAAAAUAAGUACGUCCU | 344 nM |
| AAUAAGGUCGCCGAUACCAGCGCAGGCAGAGCAAAGCUCUGCCUAGUAGUGAUGUUACUGCGCCCUUGGCAGCGGUGGCACGACC [Omei KL Theo B SS C v4] | 863 nM |
| AAUAAGGUCGCCGAUACCAGCGCGGGCAGAGCAAAGCUCUGCCCGGCAGUGAUGUUGCCGCGCCCUUGGCAGCGGUGGCACGACC [Omei KL Theo B SS C v7] | 166 nM |
| AGGAUAUAGUGAUGUUAUAUAAGAAGAAAACGAGGACCGGUACGGCCGCCACUCGAAGCGGCUACUAAGAGGGAAAGAAGAGGAA [ExTryptoA.A] | 174 nM |
| CGCAGUGAUGUUGCGAGUUUGAUCAGGGAAGGAGCGGCUCAGAAGCCAGGUAGGUCGCCCACGCAGUGAUGUUGUGUAUUCGGGU [Exclusion Arginine A GF 1] | 96.9 nM |
